Cited source: ChEMBL document CHEMBL4219118

- assayed.system: Procathepsin L (Homo sapiens, UniProt P07711)
- Sequence (P07711 whole entry): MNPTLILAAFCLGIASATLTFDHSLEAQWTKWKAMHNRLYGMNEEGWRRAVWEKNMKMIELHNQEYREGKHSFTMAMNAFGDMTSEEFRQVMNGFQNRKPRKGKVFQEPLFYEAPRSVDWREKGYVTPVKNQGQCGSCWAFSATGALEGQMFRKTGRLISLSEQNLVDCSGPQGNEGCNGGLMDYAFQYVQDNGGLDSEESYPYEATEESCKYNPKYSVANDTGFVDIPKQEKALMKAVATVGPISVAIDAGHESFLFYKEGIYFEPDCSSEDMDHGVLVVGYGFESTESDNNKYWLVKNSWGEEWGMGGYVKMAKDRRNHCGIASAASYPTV
- assay.text: Non-competitive inhibition of recombinant human cathepsin L expressed in Escherichia coli assessed as inhibitory constant for enzyme-inhibitor complex using Z-FR-AMC as substrate in presence of pH 6 phosphate buffer by fluorescence assay
reported.property: pKi
Scale explanation: pKi corresponds to minus log10 of a concentration expressed in moles per litre.

Given the entry N#CCNC(=O)c1cc([N+](=O)[O-])c2cccnc2c1O , report its measured pKi. 3.81

* * *

- assayed.system: Cathepsin B (Homo sapiens, UniProt P07858)
- assay.text: Inhibition of cathepsin B in human MCF-10A neoT cells assessed as proteolysis of extracellular membrane by measuring decrease in intracellular degradation of DQ-collagen 4 at 50 uM incubated for 2 hrs followed by DQ-collagen addition measured for 2 hrs by propidium iodide staining based flow cytometry relative to control
- Format: cell-based
Activity calls are given as the source filed them. No cut-off for these calls is given here.
reported.property: inhibition

These solved cases illustrate the format of a correct answer.
Given the entry N#CC1(NC(=O)c2cc([N+](=O)[O-])c3cccnc3c2O)CC1 , report its measured inhibition. 15%

Given the entry N#CCNC(=O)c1cc([N+](=O)[O-])c2cccnc2c1O , report its measured inhibition. 60%

Given the entry CCCNC(=O)[C@H]1O[C@@H]1C(=O)N[C@H](C(=O)N1CCC[C@H]1C(=O)O)[C@@H](C)CC , report its measured inhibition. inactive

Given the entry N#CCN(Cc1ccccc1)C(=O)c1ccc2c([N+](=O)[O-])cc([N+](=O)[O-])c(O)c2n1 , report its measured inhibition. inactive

Shifting focus to the compound that follows.
Given the entry N#CCN(Cc1ccccc1)C(=O)c1cc([N+](=O)[O-])c2cccnc2c1O , report its measured inhibition. < 10%
